Listed here: items and their measured DC50.
- TESTED SYSTEM: SMARCA2 (Homo sapiens)
- Sequence (P51531 whole entry): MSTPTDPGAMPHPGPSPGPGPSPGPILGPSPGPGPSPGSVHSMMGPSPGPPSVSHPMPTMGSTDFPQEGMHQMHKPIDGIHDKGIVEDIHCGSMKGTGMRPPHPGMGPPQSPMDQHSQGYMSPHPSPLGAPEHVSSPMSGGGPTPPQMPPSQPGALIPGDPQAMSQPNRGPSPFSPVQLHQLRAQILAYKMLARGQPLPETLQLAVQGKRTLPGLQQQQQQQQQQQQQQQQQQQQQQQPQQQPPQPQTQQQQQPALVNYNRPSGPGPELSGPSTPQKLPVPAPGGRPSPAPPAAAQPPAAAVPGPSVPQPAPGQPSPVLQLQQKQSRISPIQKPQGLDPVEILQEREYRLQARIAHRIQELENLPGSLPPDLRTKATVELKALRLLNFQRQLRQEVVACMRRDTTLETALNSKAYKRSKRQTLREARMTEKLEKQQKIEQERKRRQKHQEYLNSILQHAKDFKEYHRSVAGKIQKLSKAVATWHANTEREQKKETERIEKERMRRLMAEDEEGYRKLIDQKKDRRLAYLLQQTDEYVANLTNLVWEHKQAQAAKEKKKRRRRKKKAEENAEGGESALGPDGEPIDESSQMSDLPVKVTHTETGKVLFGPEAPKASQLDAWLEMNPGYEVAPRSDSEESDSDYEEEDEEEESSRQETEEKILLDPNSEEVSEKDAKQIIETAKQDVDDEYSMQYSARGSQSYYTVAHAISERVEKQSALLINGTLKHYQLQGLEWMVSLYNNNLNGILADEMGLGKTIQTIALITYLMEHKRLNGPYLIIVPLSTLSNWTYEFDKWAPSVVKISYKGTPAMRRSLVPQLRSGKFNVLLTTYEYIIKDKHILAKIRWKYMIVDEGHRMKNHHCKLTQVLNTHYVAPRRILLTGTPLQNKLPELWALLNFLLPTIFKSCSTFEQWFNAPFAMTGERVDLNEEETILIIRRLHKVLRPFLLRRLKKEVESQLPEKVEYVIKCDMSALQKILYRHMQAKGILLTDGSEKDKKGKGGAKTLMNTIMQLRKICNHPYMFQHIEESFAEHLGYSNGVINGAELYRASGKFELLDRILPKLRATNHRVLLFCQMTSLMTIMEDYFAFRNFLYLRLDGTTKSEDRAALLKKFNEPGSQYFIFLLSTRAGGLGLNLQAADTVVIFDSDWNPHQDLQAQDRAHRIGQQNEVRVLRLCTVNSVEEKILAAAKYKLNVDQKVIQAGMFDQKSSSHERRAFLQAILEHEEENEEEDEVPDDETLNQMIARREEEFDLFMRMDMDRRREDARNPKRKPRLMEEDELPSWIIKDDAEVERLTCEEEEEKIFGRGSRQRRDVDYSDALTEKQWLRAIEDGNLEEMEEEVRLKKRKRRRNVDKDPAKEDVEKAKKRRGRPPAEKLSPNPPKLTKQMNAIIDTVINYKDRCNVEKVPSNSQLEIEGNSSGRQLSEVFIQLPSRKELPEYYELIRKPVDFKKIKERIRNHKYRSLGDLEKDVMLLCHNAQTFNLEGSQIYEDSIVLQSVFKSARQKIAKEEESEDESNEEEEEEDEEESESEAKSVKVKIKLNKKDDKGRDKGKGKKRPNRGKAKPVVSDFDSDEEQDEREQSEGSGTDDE
- ASSAY INFO: MSD SMARCA2 degradation in A549 cell line
- Type: cell-based
- Set-up: endogenous in cells
- REPORTED CONDITIONS: A549 cells, 24 h, read-out: SMARCA2 MSD A549 degradation 24 h: Average external-Abs DC50

# COMPOUND, DC50
records = [
    ("Cn1nccc1-c1ccc(CNC(=O)[C@@H]2C[C@@H](O)CN2C(=O)[C@@H](NC(=O)[C@H]2CC3(C2)C[C@H](N2CCC(c4cnc(N5C6CCC5CN(c5cc(-c7ccccc7O)nnc5N)C6)nc4)CC2)C3)C(C)(C)C)cc1 (stereo partly drawn) [I-36]", "0.1 to 0.5 µM"),
    ("Cc1ncsc1-c1ccc(CNC(=O)[C@@H]2C[C@H](O)CN2C(=O)[C@@H](NC(=O)[C@H]2CC3(C2)C[C@H](N2CCC(c4cnc(N5C6CCC5CN(c5cc(-c7ccccc7O)nnc5N)C6)nc4)CC2)C3)C(C)(C)C)cc1 (stereo partly drawn) [I-80]", "> 1 µM"),
    ("Cc1ncsc1-c1ccc(CNC(=O)[C@@H]2C[C@@H](O)CN2C(=O)[C@@H](NC(=O)[C@H]2CC3(C2)C[C@H](N2CCC(Oc4ccc(N5C6CCC5CN(c5cc(-c7ccccc7O)nnc5N)C6)cn4)CC2)C3)C(C)(C)C)cc1 (stereo partly drawn) [I-39]", "> 1 µM"),
]

====

- TESTED SYSTEM: SMARCA2 (Homo sapiens)
- ASSAY INFO: SMARCA2 Western blot MV4-11 degradation
- Assay type: cell-based
- Parameters: SMARCA2 and SMARCA4 protein degradation in MV4-11 cells; endogenous in cells; host or cells: MV4-11
- REPORTED CONDITIONS: MV4-11, MV4-11 cells, 24 h; read-out: SMARCA2 MSD MV411 degradation 24 h: average Dmax %
# Dmax values compiled below

# COMPOUND, Dmax
measured = [
    ("Cc1ncsc1-c1ccc(CNC(=O)[C@@H]2C[C@@H](O)CN2C(=O)[C@@H](NC(=O)C2(F)CC2)C(C)(C)C)c(OCCCCN2CCC(c3cnc(N4C5CCC4CN(c4cc(-c6ccccc6O)nnc4N)C5)nc3)CC2)c1", "70 to 90%"),
    ("Cc1ncsc1-c1ccc(CNC(=O)[C@@H]2C[C@@H](O)CN2C(=O)[C@@H](NC(=O)C2CC3(C2)CN(C2CCC(c4cnc(N5C6CCC5CN(c5cc(-c7ccccc7O)nnc5N)C6)nc4)CC2)C3)C(C)(C)C)cc1 (some centres unmarked)", "70 to 90%"),
    ("Cc1ncsc1-c1ccc(CNC(=O)[C@@H]2C[C@@H](O)CN2C(=O)[C@@H](NC(=O)C2CC3(C2)CN(C2CCN(c4cnc(N5C6CCC5CN(c5cc(-c7ccccc7O)nnc5N)C6)nc4)CC2)C3)C(C)(C)C)cc1", "70 to 90%"),
    ("Cc1ncsc1-c1cnc(CNC(=O)[C@@H]2C[C@@H](O)CN2C(=O)[C@@H](NC(=O)[C@H]2CC3(C2)C[C@H](N2CCC(c4ccc(N5C6CCC5CN(c5cc(-c7ccccc7O)nnc5N)C6)cc4)CC2)C3)C(C)(C)C)nc1 (some centres unmarked)", "< 50%"),
    ("Cc1ncsc1-c1cnc(CNC(=O)[C@@H]2C[C@@H](O)CN2C(=O)[C@@H](NC(=O)[C@H]2CC3(C2)C[C@H](N2CCC(c4ccc(N5C6CCC5CN(c5cc(-c7ccccc7O)nnc5N)C6)cc4)CC2)C3)C(C)(C)C)cn1 (some centres unmarked)", "< 50%"),
]
